tested on: HeLa Kyoto; assay: solubility in G1/S (NP-40 vs SDS abundance) (log2 ratio); higher = more soluble; details: cell cycle stage: G1/S;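 further: HeLa Kyoto cells arrested at G1/S by double thymidine block, proteins quantified by TMT10plex mass spectrometry in mild NP-40 versus SDS extracts, three biological replicates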
assay_metric: solubility in G1/S (log2)

# count of solved cases: 2
INSERT INTO results (ordered_residues, result) VALUES
  ('MRGAGAILRPAARGARDLNPRRDISSWLAQWFPRTPARSVVALKTPIKVELVAGKTYRWCVCGRSKKQPFCDGSHFFQRTGLSPLKFKAQETRMVALCTCKATQRPPYCDGTHRSERVQKAEVGSPL [CISD3]', -0.205),
  ('MESVSCSAAAVRTGDMESQRDLSLVPERLQRREQERQLEVERRKQKRQNQEVEKENSHFFVATFVRERAAVEELLERAESVERLEEAASRLQGLQKLINDSVFFLAAYDLRQGQEALARLQAALAERRRGLQPKKRFAFKTRGKDAASSTKVDAAPGIPPAVESIQDSPLPKKAEGDLGPSWVCGFSNLESQVLEKRASELHQRDVLLTELSNCTVRLYGNPNTLRLTKAHSCKLLCGPVSTSVFLEDCSDCVLAVACQQLRIHSTKDTRIFLQVTSRAIVEDCSGIQFAPYTWSYPEIDKDFESSGLDRSKNNWNDVDDFNWLARDMASPNWSILPEEERNIQWD [TBCC]', 0.242);

-- ask Given MVLSELAARLNCAEYKNWVKAGHCLLLLRSCLQGFVGREVLSFHRGLLAAAPGLGPRAVCRGGSRCSPRARQFQPQCQVCAEWKREILRHHVNRNGDVHWGNCRPGRWPVDAWEVAKAFMPRGLADKQGPEECDAVALLSLINSCDHFVVDRKKVTEVIKCRNEIMHSSEMKVSSTWLRDFQMKIQNFLNEFKNIPEIVAVYSRIEQLLTSDWAVHIPEEDQRDGCECEMGTYLSESQVNEIEMQLLKEKLQEIYLQAEEQEVLPEELSNRLEVVKEFLRNNEDLRNGLTEDMQKLDSLCLHQKLDSQEPGRQTPDRKA [CXORF38] , report its solubility in G1/S (log2) on HeLa Kyoto.
-- reply 0.0857
